# Test system: Cancer cell lines
# ASSAY INFO: Inhibition of human breast cancer cells
# Format: functional
VALUE TYPE: GI50

1. Cc1nn2c(/C=N/NC(=N)N)c(-c3ccc(Cl)c([N+](=O)[O-])c3)nc2s1 = 1.02 µM
2. Cc1cn2c(/C=N/NC(=N)NN)c(-c3ccc(Cl)c([N+](=O)[O-])c3)nc2s1 = 1.55 µM
3. N=C(N)N/N=C/c1c(-c2ccsc2)nc2sccn12 = 17.4 µM
4. COc1cc([N+](=O)[O-])c(OC)cc1-c1nc2sc(Cl)cn2c1/C=N\Nc1ccccn1 = 17.4 µM
5. N=C(N)N/N=C/c1c(-c2cc(Cl)sc2Cl)nc2sccn12 = 1.66 µM
6. N=C(N)N/N=C/c1c(-c2cccs2)nc2n1CCS2 = 17.4 µM

###

# Test system: Cancer cell lines
# ASSAY INFO: Inhibition of human ovarian cancer cells
# Type: functional
# ASSAY CONDITIONS: read-out: pTGI (converted)
compounds and their reported TGI
VALUE TYPE: TGI (µM)

1. Cc1cn2c(/C=N/NC3=NCCN3)c(-c3ccc(Cl)c([N+](=O)[O-])c3)nc2s1 = 3.39
2. Cc1cn2c(/C=N/NC(=N)NN)c(-c3ccc(Cl)c([N+](=O)[O-])c3)nc2s1 = 3.72
3. COc1cc([N+](=O)[O-])c(OC)cc1-c1nc2sc(Cl)cn2c1/C=N\Nc1ccccn1 = 33.1
4. Cc1cc(-c2nc3sc(C)cn3c2/C=N/NC(=N)N)c(C)s1 = 33.1
5. Cc1cn2c(/C=N/NC(=N)N)c(-c3ccsc3)nc2s1 = 27.5

###

# Test system: Cancer cell lines
# ASSAY INFO: Inhibition of human non-small cell lung cancer cells
# Format: functional
VALUE TYPE: GI50

1) N=C(N)N/N=C/c1c(-c2cccs2)nc2n1CCS2 = 28.8 µM
2) N=C(N)N/N=C/c1c(-c2cc(Cl)sc2Cl)nc2sccn12 = 2.69 µM
3) Cc1cn2c(/C=N/NC(=N)N)c(-c3cc(Cl)sc3Cl)nc2s1 = 1.1 µM
4) COc1cc([N+](=O)[O-])c(OC)cc1-c1nc2sc(Cl)cn2c1/C=N\Nc1ccccn1 = 25.7 µM

###

# Test system: Cancer cell lines
# ASSAY INFO: Inhibition of human colon cancer cells
# Type: functional
Rule: GI50 below 2000 nM gives Condition met, anything at or above gives Condition not met.

1. Cc1cn2c(/C=N/NC(=N)N)c(-c3cccs3)nc2s1 = Condition not met
2. N=C(N)N/N=C/c1c(-c2cc(Cl)sc2Cl)nc2n1CCS2 = Condition met
3. Cc1cn2c(/C=N/NC3=NCCN3)c(-c3ccc(Cl)c([N+](=O)[O-])c3)nc2s1 = Condition met
4. Cc1cn2c(/C=N/NC(=N)NN)c(-c3ccc(Cl)c([N+](=O)[O-])c3)nc2s1 = Condition met
5. N=C(N)N/N=C/c1c(-c2cccs2)nc2n1CCS2 = Condition not met
6. Cc1cc(-c2nc3n(c2/C=N/NC(=N)N)CCS3)c(C)s1 = Condition not met
7. N=C(N)N/N=C/c1c(-c2cc(Cl)sc2Cl)nc2sccn12 = Condition met
8. N=C(N)N/N=C/c1c(-c2ccc(Cl)c([N+](=O)[O-])c2)nc2ccccn12 = Condition met
9. COc1cc([N+](=O)[O-])c(OC)cc1-c1nc2sc(Cl)cn2c1/C=N\Nc1ccccn1 = Condition not met
10. COc1cc([N+](=O)[O-])c(OC)cc1-c1nc2sc(Cl)cn2c1/C=N\NC1=NCCN1 = Condition met

###

# Tested on: Cancer cell lines
# ASSAY INFO: Inhibition of human non-small cell lung cancer cells
# Assay type: functional
# ASSAY CONDITIONS: read-out: pTGI (converted)
Output YES for TGI not less than 20 µM; output NO otherwise.

1) Cc1cn2c(/C=N/NC3=NCCN3)c(-c3ccc(Cl)c([N+](=O)[O-])c3)nc2s1 = NO
2) N=C(N)N/N=C/c1c(-c2cccs2)nc2sccn12 = YES
3) Cc1cn2c(/C=N/NC(=N)N)c(-c3ccsc3)nc2s1 = YES
4) N=C(N)N/N=C/c1c(-c2cc(Cl)sc2Cl)nc2n1CCS2 = YES
5) N=C(N)N/N=C/c1c(-c2ccc(Cl)c([N+](=O)[O-])c2)nc2sc3ccccc3n12 = NO
6) Cc1cn2c(/C=N/NC(=N)NN)c(-c3ccc(Cl)c([N+](=O)[O-])c3)nc2s1 = NO
7) Cc1cn2c(/C=N/NC(=N)N)c(-c3cccs3)nc2s1 = YES
8) CCOC(=O)c1nc2sc(Cl)cn2c1/C=N\NC(=N)N = YES
9) COc1cc([N+](=O)[O-])c(OC)cc1-c1nc2sc(Cl)cn2c1/C=N\NC(=N)N/N=C\c1c(-c2cc(OC)c([N+](=O)[O-])cc2OC)nc2sc(Cl)cn12 = NO
10) CC(/C=N/NC(=N)N)=N\NC(=N)N [MITOGUAZONE] = YES

###

# Test system: Cancer cell lines
# ASSAY INFO: Inhibition of human ovarian cancer cells
# Format: functional
# ASSAY CONDITIONS: read-out: pTGI (converted)
VALUE TYPE: log10 TGI (log10 of the value in µM)

1. N=C(N)N/N=C/c1c(-c2cc(Cl)sc2Cl)nc2n1CCS2 = 1.36
2. N=C(N)N/N=C/c1c(-c2ccsc2)nc2sccn12 = 1.50
3. Cc1cn2c(/C=N/NC(=N)N)c(-c3cc(Cl)sc3Cl)nc2s1 = 0.37
4. Cc1cc(-c2nc3n(c2/C=N/NC(=N)N)CCS3)c(C)s1 = 1.68
5. N=C(N)N/N=C/c1c(-c2ccc(Cl)c([N+](=O)[O-])c2)nc2ccccn12 = 0.56
6. Cc1cn2c(/C=N/NC(=N)N)c(-c3cccs3)nc2s1 = 1.24
7. COc1cc([N+](=O)[O-])c(OC)cc1-c1nc2sc(Cl)cn2c1/C=N\NC1=NCCN1 = 0.27

###

# Test system: Melanoma cell
# ASSAY INFO: Inhibition of human melanoma cells
# Type: functional
# ASSAY CONDITIONS: read-out: pTGI (converted)
molecules and their reported log10 TGI
VALUE TYPE: log10 TGI (log10 of the value in µM)

1. Cc1cn2c(/C=N/NC3=NCCN3)c(-c3ccc(Cl)c([N+](=O)[O-])c3)nc2s1 = 0.38
2. Cc1cc(-c2nc3n(c2/C=N/NC(=N)N)CCS3)c(C)s1 = 1.47
3. N=C(N)N/N=C/c1c(-c2cc(Cl)sc2Cl)nc2sccn12 = 0.86
4. CC(/C=N/NC(=N)N)=N\NC(=N)N = 2.50
5. Cc1cn2c(/C=N/NC(=N)N)c(-c3cccs3)nc2s1 = 0.77
6. Cc1cc(-c2nc3sccn3c2/C=N/NC(=N)N)c(C)s1 = 1.49
7. COc1cc([N+](=O)[O-])c(OC)cc1-c1nc2sc(Cl)cn2c1/C=N\NC1=NCCN1 = 0.59
8. N=C(N)N/N=C/c1c(-c2cccs2)nc2sccn12 = 1.46
9. Cc1nn2c(/C=N/NC(=N)N)c(-c3ccc(Cl)c([N+](=O)[O-])c3)nc2s1 = 0.47
10. N=C(N)N/N=C/c1c(-c2ccc(Cl)c([N+](=O)[O-])c2)nc2sc3ccccc3n12 = 0.44
11. Cc1cn2c(/C=N/NC(=N)NN)c(-c3ccc(Cl)c([N+](=O)[O-])c3)nc2s1 = 0.66
12. CCOC(=O)c1nc2sc(Cl)cn2c1/C=N\NC(=N)N = 1.66
13. N=C(N)N/N=C/c1c(-c2cc(Cl)sc2Cl)nc2n1CCS2 = 1.31
14. COc1cc([N+](=O)[O-])c(OC)cc1-c1nc2sc(Cl)cn2c1/C=N\NC(=N)N/N=C\c1c(-c2cc(OC)c([N+](=O)[O-])cc2OC)nc2sc(Cl)cn12 = 0.71
15. Cc1cc(-c2nc3sc(C)cn3c2/C=N/NC(=N)N)c(C)s1 = 1.18
16. N=C(N)N/N=C/c1c(-c2cccs2)nc2n1CCS2 = 1.58
17. N=C(N)N/N=C/c1c(-c2ccc(Cl)c([N+](=O)[O-])c2)nc2ccccn12 = 0.56
18. COc1cc(OC)cc(-c2nc3sccn3c2/C=N/NC(=N)N)c1 = 1.25
19. Cc1cn2c(/C=N/NC(=N)N)c(-c3cc(Cl)sc3Cl)nc2s1 = 0.49
20. N=C(N)N/N=C/c1c(-c2ccsc2)nc2sccn12 = 1.50
21. COc1cc([N+](=O)[O-])c(OC)cc1-c1nc2sc(Cl)cn2c1/C=N\Nc1ccccn1 = 1.67
22. Cc1cn2c(/C=N/NC(=N)N)c(-c3ccsc3)nc2s1 = 1.29
23. Cc1cn2c(/C=N/Nc3ccccn3)c(-c3ccc(Cl)c([N+](=O)[O-])c3)nc2s1 = 1.58
